Cited source: paper PMC4370687

experimentalTarget: human α6β2δ GABAAR (Homo sapiens, UniProt P47870+Q16445)
Construct: expressed in transfected cells; host or cells: Xenopus laevis oocytes (cRNA injection, α6:β2:δ 10:1:10)
Sequence (Q16445 20-453): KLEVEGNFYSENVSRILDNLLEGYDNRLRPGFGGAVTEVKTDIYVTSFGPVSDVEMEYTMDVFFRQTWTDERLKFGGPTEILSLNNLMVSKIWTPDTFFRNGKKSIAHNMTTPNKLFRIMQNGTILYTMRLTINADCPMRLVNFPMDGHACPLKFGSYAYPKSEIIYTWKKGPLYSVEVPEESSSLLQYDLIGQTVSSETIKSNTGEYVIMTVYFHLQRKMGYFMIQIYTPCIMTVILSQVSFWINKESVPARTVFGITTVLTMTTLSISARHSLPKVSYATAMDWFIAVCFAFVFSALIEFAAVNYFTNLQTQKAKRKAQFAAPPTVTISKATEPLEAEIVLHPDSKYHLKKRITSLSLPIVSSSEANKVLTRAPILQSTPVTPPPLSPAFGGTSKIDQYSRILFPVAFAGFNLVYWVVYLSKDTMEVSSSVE
Sequence (P47870 26-474 isoform P47870-1 limits assumed): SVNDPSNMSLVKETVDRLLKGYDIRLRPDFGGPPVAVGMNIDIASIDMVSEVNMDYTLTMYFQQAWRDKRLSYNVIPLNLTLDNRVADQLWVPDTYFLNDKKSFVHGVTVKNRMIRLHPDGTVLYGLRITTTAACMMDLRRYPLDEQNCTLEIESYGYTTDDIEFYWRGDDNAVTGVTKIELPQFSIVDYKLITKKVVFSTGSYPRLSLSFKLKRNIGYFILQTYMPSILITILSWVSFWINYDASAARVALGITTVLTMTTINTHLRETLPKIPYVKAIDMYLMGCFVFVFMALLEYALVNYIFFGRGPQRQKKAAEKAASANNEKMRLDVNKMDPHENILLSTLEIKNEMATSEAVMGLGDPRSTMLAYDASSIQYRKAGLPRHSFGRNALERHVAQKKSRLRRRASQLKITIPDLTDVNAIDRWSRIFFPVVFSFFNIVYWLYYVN
Sequence (O14764 25-452 partner): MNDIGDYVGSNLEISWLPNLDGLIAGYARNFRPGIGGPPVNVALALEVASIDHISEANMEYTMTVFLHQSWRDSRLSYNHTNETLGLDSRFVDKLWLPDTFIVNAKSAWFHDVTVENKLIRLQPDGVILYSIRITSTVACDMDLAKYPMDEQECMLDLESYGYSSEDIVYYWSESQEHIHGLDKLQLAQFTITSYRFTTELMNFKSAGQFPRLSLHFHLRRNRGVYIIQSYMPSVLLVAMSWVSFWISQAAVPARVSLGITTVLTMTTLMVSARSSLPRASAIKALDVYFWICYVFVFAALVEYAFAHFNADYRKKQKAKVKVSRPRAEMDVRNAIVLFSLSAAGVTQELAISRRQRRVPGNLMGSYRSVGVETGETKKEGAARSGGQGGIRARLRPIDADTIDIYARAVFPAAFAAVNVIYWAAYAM
protocolDescription: Potentiation of GABA EC20-evoked currents, TEVC in Xenopus oocytes
Format: cell-based
conditionContext: pEC50 ± S.E.M., PAM, co-applied with GABA EC20; N-desmethylclobazam value estimated, curve not saturated at 1 mM
metric: pEC50
Convention used: pEC50 is expressed as -log10 of the molar concentration.

-- ask Return reported pEC50; argument: O=C1CN=C(c2ccccc2Cl)c2cc([N+](=O)[O-])ccc2N1 [clonazepam]
-- reply 4.53
